PBM binding z-score reference
# System: PPARg DBDmut IVT, anti-PPARg (DBD mutation: PPARg1 K132A/R137A, NR concentration 270 nM)
# Test Protocol: PBM binding z-score (relative to random genomic background probes); higher = stronger binding; sequences stand for … in GC…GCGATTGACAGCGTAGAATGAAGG
Reply: number alone, nothing else.

Sequence Chain | PBM binding z-score
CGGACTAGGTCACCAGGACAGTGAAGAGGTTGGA | 0.234
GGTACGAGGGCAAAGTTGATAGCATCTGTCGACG | -1.04
ATCGAAAAGTCGAAGGTGAGTATACCCACCCGAA | 0.527

Recorded PBM binding z-score for "ACTAGGTGGTCAGCTGAGGTCACACACAATTCGG" on PPARg DBDmut IVT, anti-PPARg (DBD mutation: PPARg1 K132A/R137A, NR concentration 270 nM) was 0.306

Given the sequence "GCTTACGGGTCAAAGGTTATAGTATGAATAGAAT" and test system PPARg DBDmut IVT, anti-PPARg (DBD mutation: PPARg1 K132A/R137A, NR concentration 270 nM), the measured PBM binding z-score is 1.07

Record "CCTACTGGGCCAAAAAGGTAATTGATGCCGATAA" / PPARg DBDmut IVT, anti-PPARg (DBD mutation: PPARg1 K132A/R137A, NR concentration 270 nM), PBM binding z-score recorded as -0.668

Measured PBM binding z-score (PPARg DBDmut IVT, anti-PPARg (DBD mutation: PPARg1 K132A/R137A, NR concentration 270 nM)), entry "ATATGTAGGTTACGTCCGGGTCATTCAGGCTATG" : 3.42

Readout PBM binding z-score for "CGTCCAAGGTCATAGGAGGTCATTGAAGACAGAT" , test system PPARg DBDmut IVT, anti-PPARg (DBD mutation: PPARg1 K132A/R137A, NR concentration 270 nM), was 0.325

Measured PBM binding z-score for this entry "AGTCAAAGTTCACTAGGTTACGTAAGATTCAGCT" on PPARg DBDmut IVT, anti-PPARg (DBD mutation: PPARg1 K132A/R137A, NR concentration 270 nM): 1.2

Entry "CAAGCTAGGTCAAGAGGTCAAAGTCCGCTTCCCG" under PPARg DBDmut IVT, anti-PPARg (DBD mutation: PPARg1 K132A/R137A, NR concentration 270 nM) had PBM binding z-score of -0.534

Entry "CCTACTGGGCCAAAGGTCAGTGATTCCAATGCTC" ; assay system PPARg DBDmut IVT, anti-PPARg (DBD mutation: PPARg1 K132A/R137A, NR concentration 270 nM); PBM binding z-score recorded at -0.864

Record "CCTACTGGGCCAACAAGGTCATTGATGCCGATAA" / PPARg DBDmut IVT, anti-PPARg (DBD mutation: PPARg1 K132A/R137A, NR concentration 270 nM), PBM binding z-score recorded as -0.198

PPARg DBDmut IVT, anti-PPARg (DBD mutation: PPARg1 K132A/R137A, NR concentration 270 nM) PBM binding z-score of "CGAACTAGGTCACCAGCACAGTGAAGAGGTTGGA" is 0.181
